tested on: trypsin; assay: in vitro; assay type: in vitro ADME; settings: pH 8.6
READOUT_LABEL: half-life at 0.1 mg/ml

[ask] // half-life at 0.1 mg/ml lookup, key: `N=C(N)NCCC[C@H](NC(=O)[C@H](Cc1ccc(-c2ccc3ccccc3c2)cc1)NC(=O)[C@@H](N)CCCNC(=N)N)C(=O)NCCc1ccccc1`
[reply] > 24 h
